These measurements were taken from paper PMC5421785.

# tested-on: HLA-DRB1*04:01 (Homo sapiens, UniProt P01903+P01911, A100K/A169T/F76Y/I96L/K127E/L162R/M171V/N62H/P40V/Q125Y/R42H/S133A/S149N/S66Y/V115G/V209L/W38E)
# Construct: EBV transformed homozygous cell lines were used as sources of MHC molecules; endogenous in cells; host or cells: EBV transformed homozygous cell lines
# protocol-details: HLA class II peptide binding, inhibition of radiolabeled peptide binding to purified MHC
# condition-summary: wild-type (unmodified Arg) 15-mer peptide; purified HLA-DRB1*04:01; read-out: DRB1*04:01 binding capacity, WT peptide (IC50 nM)
Ends that are not written are not given here.
Task for the reader: assign each of the following sequences its reported IC50.
Give bare numbers, in nM.

Below, each entry is followed by its recorded IC50 result.
- monomer-sequence: "DALKGTNESLERQMR [Vimentin 331 WT]"
  unit-tag: "nM"
  IC50: 18000
- monomer-sequence: "ERQMREMEENFAVEA [Vimentin 341 WT]"
  unit-tag: "nM"
  IC50: 912
- monomer-sequence: "PGLQGMPGERGAAGI [Collagen 746 WT]"
  unit-tag: "nM"
  IC50: 1050
- monomer-sequence: "DGPKGARGDSGPPGR [Collagen 926 WT]"
  unit-tag: "nM"
  IC50: 27400
- monomer-sequence: "LAGQRGIVGLPGQRG [Collagen 976 WT]"
  unit-tag: "nM"
  IC50: 9280

Turning now to a further sequence:
Reported IC50 of MARHLREYQDLLNVK [Vimentin 376 WT] : 1780

---

# tested-on: HLA-DRB1*04:01 (Homo sapiens, UniProt P01903+P01911, A100K/A169T/F76Y/I96L/K127E/L162R/M171V/N62H/P40V/Q125Y/R42H/S133A/S149N/S66Y/V115G/V209L/W38E)
# Construct: EBV transformed homozygous cell lines were used as sources of MHC molecules; endogenous in cells; host or cells: EBV transformed homozygous cell lines
# protocol-details: HLA class II peptide binding, inhibition of radiolabeled peptide binding to purified MHC
# condition-summary: citrullinated 15-mer (X); purified MHC, inhibition of radiolabeled peptide binding; dash = IC50 >40,000 nM; read-out: DRB1*04:01 binding capacity, Cit peptide (IC50 nM)
Square brackets hold non-standard residues; d marks the D form. Peptide text beside a SMILES is read from it. Cit = NC(=O)NCCC[C@H](N)C(=O)O
parameter-measured: IC50 (nM)
Numbers only, in nM.

- compound: "CC[C@H](C)[C@H](NC(=O)[C@H](Cc1ccc(O)cc1)NC(=O)[C@H](CC(N)=O)NC(=O)[C@H](C)NC(=O)[C@H](Cc1ccccc1)NC(=O)[C@H](CCCNC(=N)N)NC(=O)[C@H](CC(=O)O)NC(=O)[C@@H](N)CC(N)=O)C(=O)N[C@@H](CC(=O)O)C(=O)N[C@@H](CCCCN)C(=O)N[C@H](C(=O)N[C@@H](CCCNC(N)=O)C(=O)N[C@@H](Cc1ccccc1)C(=O)N[C@@H](CC(C)C)C(=O)N[C@@H](CCC(=O)O)C(=O)O)C(C)C [NDRFANYIDKVXFLE] (H-NDRFANYIDKV[Cit]FLE-OH)"
  parameter-measured: "IC50"
  reading: 5660

Reported IC50 of CC(C)C[C@H](NC(=O)[C@@H](NC(=O)[C@H](CC(N)=O)NC(=O)[C@H](CCC(=O)O)NC(=O)[C@H](C)NC(=O)[C@H](CCC(=O)O)NC(=O)[C@H](CCC(=O)O)NC(=O)[C@@H](N)CCCNC(=N)N)[C@@H](C)O)C(=O)N[C@@H](CCC(N)=O)C(=O)N[C@@H](CO)C(=O)N[C@@H](Cc1ccccc1)C(=O)N[C@@H](CCCNC(N)=O)C(=O)N[C@@H](CCC(N)=O)C(=O)N[C@@H](CC(=O)O)C(=O)N[C@H](C(=O)O)C(C)C [REEAENTLQSFXQDV] (H-REEAENTLQSF[Cit]QDV-OH) : 11600

---

# tested-on: HLA-DRB1*04:01 (Homo sapiens, UniProt P01903+P01911, A100K/A169T/F76Y/I96L/K127E/L162R/M171V/N62H/P40V/Q125Y/R42H/S133A/S149N/S66Y/V115G/V209L/W38E)
# Construct: EBV transformed homozygous cell lines were used as sources of MHC molecules; endogenous in cells; host or cells: EBV transformed homozygous cell lines
# protocol-details: HLA class II peptide binding, inhibition of radiolabeled peptide binding to purified MHC
# condition-summary: citrullinated 15-mer peptide (X = citrulline); purified HLA-DRB1*04:01; read-out: DRB1*04:01 binding capacity, Cit peptide (IC50 nM)
Square brackets hold non-standard residues; d marks the D form. Peptide text beside a SMILES is read from it. Cit = NC(=O)NCCC[C@H](N)C(=O)O
parameter-measured: IC50 (nM)
Numbers only, in nM.

Reported IC50 of CC(C)C[C@H](NC(=O)CNC(=O)[C@H](C)NC(=O)[C@H](Cc1ccccc1)NC(=O)[C@H](C)NC(=O)[C@@H](N)CO)C(=O)NCC(=O)N1CCC[C@H]1C(=O)N[C@@H](CCCNC(N)=O)C(=O)N[C@@H](CCC(=O)O)C(=O)N[C@@H](CCCCN)C(=O)NCC(=O)N1CCC[C@H]1C(=O)N[C@@H](CC(=O)O)C(=O)N1CCC[C@H]1C(=O)O [SAFAGLGPXEKGPDP] (H-SAFAGLGP[Cit]EKGPDP-OH) : 6400

---

Task for the reader: assign each of the following molecules its reported IC50.
# tested-on: HLA-DRB1*01:01 (Homo sapiens, UniProt P01903+P01911, A100R/D57E/F55L/F60I/F76Y/I96L/L162R/M171V/P40L/Q125E/R42F/V115G/Y59C)
# Construct: EBV transformed homozygous cell lines were used as sources of MHC molecules; endogenous in cells; host or cells: EBV transformed homozygous cell lines
# protocol-details: HLA class II peptide binding, inhibition of radiolabeled peptide binding to purified MHC
# condition-summary: citrullinated 15-mer peptide (X = citrulline); purified HLA-DRB1*01:01; read-out: DRB1*01:01 binding capacity, Cit peptide (IC50 nM)
Square brackets hold non-standard residues; d marks the D form. Peptide text beside a SMILES is read from it. Cit = NC(=O)NCCC[C@H](N)C(=O)O
Answers are plain numbers, in nM.

Below, each entry is followed by its recorded IC50 result.
- molecule: "CC(C)[C@H](NC(=O)CNC(=O)[C@H](C)NC(=O)[C@H](C)N)C(=O)N[C@@H](CCCCN)C(=O)NCC(=O)N[C@@H](CC(=O)O)C(=O)N[C@@H](CCCNC(N)=O)C(=O)NCC(=O)N[C@@H](CCC(=O)O)C(=O)N[C@H](C(=O)NCC(=O)N[C@@H](C)C(=O)N[C@H](C(=O)NCC(=O)O)C(C)C)[C@@H](C)O [AAGVKGDXGETGAVG] (H-AAGVKGD[Cit]GETGAVG-OH)"
  parameter-measured: "IC50"
  unit-tag: "nM"
  reading: 2010
- molecule: "CC(C)C[C@H](NC(=O)[C@@H](NC(=O)[C@H](C)NC(=O)[C@H](C)NC(=O)[C@@H](NC(=O)[C@@H](N)CC(C)C)C(C)C)C(C)C)C(=O)N[C@@H](CCCNC(N)=O)C(=O)N[C@@H](CS)C(=O)N[C@@H](CCC(N)=O)C(=O)NCC(=O)N[C@@H](CCC(N)=O)C(=O)N[C@@H](CC(=O)O)C(=O)N[C@H](C(=O)N[C@@H](CCC(N)=O)C(=O)N[C@@H](CCC(=O)O)C(=O)O)C(C)C [LVAAVLXCQGQDVQE] (H-LVAAVL[Cit]CQGQDVQE-OH)"
  parameter-measured: "IC50"
  unit-tag: "nM"
  reading: 93
- molecule: "CSCC[C@H](NC(=O)[C@H](CCC(=O)O)NC(=O)[C@H](CCCNC(=N)N)NC(=O)[C@H](CCSC)NC(=O)[C@H](CCC(N)=O)NC(=O)[C@H](CCCNC(N)=O)NC(=O)[C@@H](N)CCC(=O)O)C(=O)N[C@@H](CCC(=O)O)C(=O)N[C@@H](CCC(=O)O)C(=O)N[C@@H](CC(N)=O)C(=O)N[C@@H](Cc1ccccc1)C(=O)N[C@@H](C)C(=O)N[C@H](C(=O)N[C@@H](CCC(=O)O)C(=O)N[C@@H](C)C(=O)O)C(C)C [EXQMREMEENFAVEA] (H-E[Cit]QMREMEENFAVEA-OH)"
  parameter-measured: "IC50"
  unit-tag: "nM"
  reading: 5960
- molecule: "CSCC[C@H](NC(=O)[C@H](CCC(=O)O)NC(=O)[C@H](CCC(=O)O)NC(=O)[C@H](CCCCN)NC(=O)[C@H](CCSC)NC(=O)[C@@H](N)CC(N)=O)C(=O)N[C@@H](C)C(=O)N[C@@H](CCCNC(=N)N)C(=O)N[C@@H](Cc1c[nH]cn1)C(=O)N[C@@H](CC(C)C)C(=O)N[C@@H](CCCNC(N)=O)C(=O)N[C@@H](CCC(=O)O)C(=O)N[C@@H](Cc1ccc(O)cc1)C(=O)N[C@@H](CCC(N)=O)C(=O)N[C@@H](CC(=O)O)C(=O)O"
  parameter-measured: "IC50"
  unit-tag: "nM"
  reading: 5060

Reported IC50 of CC[C@H](C)[C@H](NC(=O)CNC(=O)[C@H](CCCNC(N)=O)NC(=O)[C@H](CCC(N)=O)NC(=O)CNC(=O)[C@H](C)NC(=O)[C@H](CC(C)C)NC(=O)CNC(=O)[C@H](CCC(N)=O)NC(=O)[C@@H]1CCCN1C(=O)CNC(=O)[C@@H]1CCCN1)C(=O)N[C@H](C(=O)NCC(=O)N[C@@H](CC(C)C)C(=O)O)C(C)C : 7.1
